Test system: U-937 (hystiocytic lymphoma)
Test: 72-hour IC50 determination for non-adherent cells using MTS
Format: cell-based, human
Conditions: 72-hour exposure; MTS; error is standard deviation of the mean, n ≧ 3; read-out: U-937, 72-hour IC50 (Table E1-1)
# IC50 annotations

I'd like to know its IC50. The compound in question is CS[C@H]1C(=O)N2[C@H]3N(S(=O)(=O)c4ccccc4)c4ccccc4[C@@]3(c3c[nH]c4ccccc34)C[C@]2(SC)C(=O)N1C [Compound 39]
> 10 µM

----------
System: 786-O (renal carcinoma)
Experiment: 72-hour IC50 determination for adherent cells using sulforhodamine B (SRB)
Format: cell-based, human
Conditions: 72-hour exposure, error is standard deviation of the mean, n ≧ 3, read-out: 786-O, 72-hour IC50 (Table E1-2)
Readout label: IC50 (nM)
Numbers only here, please. The scale is nM.

Some solved cases for reference:
I'd like to know its IC50. The molecule in question is CN1C(=O)[C@@]23C[C@]4(F)c5ccccc5N(S(=O)(=O)c5ccccc5)[C@@H]4N2C(=O)[C@@H]1SS3 [Compound 31, C3-Fluoro epidithiodiketopiperazines]
368

I'd like to know its IC50. The molecule in question is CN1C(=O)[C@]23C[C@]4(F)c5ccccc5N(S(=O)(=O)c5ccccc5)[C@@H]4N2C(=O)[C@H]1SS3 [Compound 35, C3-Fluoro epidithiodiketopiperazines]
64

I'd like to know its IC50. The molecule in question is CN1C(=O)C23CC4(c5c[nH]c6ccccc56)c5ccccc5N(S(=O)(=O)c5ccccc5)C4N2C(=O)C1SS3 (stereo not shown)
62.7

Further cases:
I'd like to know its IC50. The molecule in question is CN1C(=O)[C@@]23C[C@]4([C@]56C[C@@]78SS[C@@](C)(C(=O)N7[C@H]5N(S(=O)(=O)c5ccccc5)c5ccccc56)N(C)C8=O)c5ccccc5N(S(=O)(=O)c5ccccc5)[C@@H]4N2C(=O)[C@]1(C)SS3 [Compound 14, Dimeric epidithiodiketopiperazine]
1.55

I'd like to know its IC50. The molecule in question is CN1C(=O)[C@@]23C[C@]4([C@]56C[C@@]78SSS[C@@](CO)(C(=O)N7[C@H]5Nc5ccccc56)N(C)C8=O)c5ccccc5N[C@@H]4N2C(=O)[C@]1(CO)SSS3 [Compound 5, (+)-chaetocin C]
14.6

I'd like to know its IC50. The molecule in question is CC(=O)OC[C@]12SSS[C@@]3(C[C@]4([C@]56C[C@@]78SSS[C@@](COC(C)=O)(C(=O)N7[C@H]5Nc5ccccc56)N(C)C8=O)c5ccccc5N[C@@H]4N3C1=O)C(=O)N2C
204

I'd like to know its IC50. The molecule in question is CN1C(=O)[C@@]23C[C@]4(c5c[nH]c6ccccc56)c5ccccc5N(S(=O)(=O)c5ccccc5)[C@@H]4N2C(=O)[C@]1(C)SS3
907

I'd like to know its IC50. The molecule in question is CN1C(=O)[C@@]23C[C@]4([C@]56C[C@@]78SS[C@@](CO)(C(=O)N7[C@H]5Nc5ccccc56)N(C)C8=O)c5ccccc5N[C@@H]4N2C(=O)[C@]1(CO)SS3 [Compound 4, (+)-chaetocin A]
26.5

I'd like to know its IC50. The molecule in question is CC(=O)OC[C@]12SS[C@@]3(C[C@]4([C@]56C[C@@]78SS[C@@](COC(C)=O)(C(=O)N7[C@H]5Nc5ccccc56)N(C)C8=O)c5ccccc5N[C@@H]4N3C1=O)C(=O)N2C
95

I'd like to know its IC50. The molecule in question is CN1C(=O)C23CC4(c5c[nH]c6ccccc56)c5ccccc5N(S(=O)(=O)c5ccccc5)C4N2C(=O)C1(C)SC(=S)S3 (stereo not shown)
266

----------
Test system: U-937 (hystiocytic lymphoma)
Assay: 72-hour IC50 determination for non-adherent cells using MTS
Assay type: cell-based, human
Conditions: 72-hour exposure; MTS; error is standard deviation of the mean, n ≧ 3; read-out: U-937, 72-hour IC50 (Table E1-1)
# IC50 annotations

I'd like to know its IC50. The compound in question is CN1C(=O)[C@@]23C[C@]4(Br)c5ccccc5N(S(=O)(=O)c5ccccc5)[C@@H]4N2C(=O)[C@@H]1SS3 [Compound 30, C3-Bromo epidithiodiketopiperazines]
5 nM

I'd like to know its IC50. The compound in question is CS[C@H]1C(=O)N2[C@H]3Nc4ccccc4[C@@]3(c3c[nH]c4ccccc34)C[C@]2(SC)C(=O)N1C [Compound 7, (+)-gliocladin B]
> 10000 nM

I'd like to know its IC50. The compound in question is CN1C(=O)[C@@]23C[C@]4([C@]56C[C@@]78SS[C@@](CO)(C(=O)N7[C@H]5Nc5ccccc56)N(C)C8=O)c5ccccc5N[C@@H]4N2C(=O)[C@]1(CO)SS3 [Compound 4, (+)-chaetocin A]
0.81 nM

I'd like to know its IC50. The compound in question is CN1C(=O)[C@@]23C[C@]4(F)c5ccccc5N(S(=O)(=O)c5ccccc5)[C@@H]4N2C(=O)[C@@H]1SS3 [Compound 31, C3-Fluoro epidithiodiketopiperazines]
20.7 nM

We next turn to a different compound, shown below.
I'd like to know its IC50. The compound in question is CN1C(=O)[C@]23C[C@]4(F)c5ccccc5N(S(=O)(=O)c5ccccc5)[C@@H]4N2C(=O)[C@H]1SS3 [Compound 35, C3-Fluoro epidithiodiketopiperazines]
21.3 nM

----------
Test system: human cancer cell lines
Experiment: Anticancer activity in human cancer cell lines, not tied to one cell line
Assay type: cell-based
Conditions: human cancer cell lines, 72-hour exposure
Readout label: anticancer activity, in words

Field: anticancer activity, in words (human cancer cell lines). Entry: CN1C(=O)[C@@]23C[C@]4([C@]56C[C@@]78SS[C@@](CO)(C(=O)N7[C@H]5Nc5ccccc56)N(C)C8=O)c5ccccc5N[C@@H]4N2C(=O)[C@]1(CO)SS3 [Compound 4, (+)-chaetocin A]
active across the board

Field: anticancer activity, in words (human cancer cell lines). Entry: CN1C(=O)[C@@]23C[C@]4([C@]56C[C@@]78SSS[C@@](CO)(C(=O)N7[C@H]5Nc5ccccc56)N(C)C8=O)c5ccccc5N[C@@H]4N2C(=O)[C@]1(CO)SSS3 [Compound 5, (+)-chaetocin C]
active across the board

----------
System: 786-O (renal carcinoma)
Experiment: 72-hour IC50 determination for adherent cells using sulforhodamine B (SRB)
Format: cell-based, human
Details: 72-hour exposure, error is standard deviation of the mean, n ≧ 3, read-out: 786-O, 72-hour IC50 (Table E1-2)
# pIC50 annotations
Value format note: pIC50 is -log10 of concentration (mol/L); just state the number.

I'd like to know its pIC50. The compound in question is CC(=O)OC[C@]12SSS[C@@]3(C[C@]4([C@]56C[C@@]78SSS[C@@](COC(C)=O)(C(=O)N7[C@H]5N(C(=O)C(F)(F)F)c5ccccc56)N(C)C8=O)c5ccccc5N(C(=O)C(F)(F)F)[C@@H]4N3C1=O)C(=O)N2C
6.72

I'd like to know its pIC50. The compound in question is CN1C(=O)[C@@]23C[C@]4([C@]56C[C@@]78SS[C@@](C)(C(=O)N7[C@H]5Nc5ccccc56)N(C)C8=O)c5ccccc5N[C@@H]4N2C(=O)[C@]1(C)SS3 [Compound 3, (+)-12,12′-dideoxyverticillin A]
7.47

Further cases:
I'd like to know its pIC50. The compound in question is CN1C(=O)[C@@]23C[C@]4(Br)c5ccccc5N(S(=O)(=O)c5ccccc5)[C@@H]4N2C(=O)[C@@H]1SS3 [Compound 30, C3-Bromo epidithiodiketopiperazines]
6.79

----------
Assay: Stability observed on isolation (concentration / solution)
Settings: observed during isolation and characterization
Readout label: stability upon concentration or in solution

I'd like to know its stability upon concentration or in solution. The compound in question is CN1C(=O)[C@@]23C[C@]4(c5c[nH]c6ccccc56)c5ccccc5N[C@@H]4N2C(=O)[C@@H]1SSS3 [Compound 29]
tends to degrade

I'd like to know its stability upon concentration or in solution. The compound in question is CN1C(=O)C23CC4(c5c[nH]c6ccccc56)c5ccccc5N(S(=O)(=O)c5ccccc5)[C@@H]4N2C(=O)[C@H]1SC(=S)S3 (stereo partly shown) [Compound 36, C3-(Indol-3′-yl)dithiepanethione]
tends to degrade

I'd like to know its stability upon concentration or in solution. The compound in question is CN1C(=O)[C@@]23C[C@]4(c5c[nH]c6ccccc56)c5ccccc5N(S(=O)(=O)c5ccccc5)[C@@H]4N2C(=O)[C@@H]1SSS3 [Compound 27]
tends to degrade

----------
System: U-937 (hystiocytic lymphoma)
Test: 72-hour IC50 determination for non-adherent cells using MTS
Type: cell-based, human
Settings: 72-hour exposure; MTS; error is standard deviation of the mean, n ≧ 3; read-out: U-937, 72-hour IC50 (Table E1-2)
Classes (IC50): LOW (below 9 nM), MEDIUM (9 nM to below 20 nM), HIGH (20 nM or more)

Solved entries:
Hey, which category is CN1C(=O)[C@@]23C[C@]4(c5c[nH]c6ccccc56)c5ccccc5N(S(=O)(=O)c5ccccc5)[C@@H]4N2C(=O)[C@]1(C)SS3 in, do you know?
HIGH

Hey, which category is CN1C(=O)[C@@]23C[C@]4([C@]56C[C@@]78SS[C@@](C)(C(=O)N7[C@H]5N(S(=O)(=O)c5ccccc5)c5ccccc56)N(C)C8=O)c5ccccc5N(S(=O)(=O)c5ccccc5)[C@@H]4N2C(=O)[C@]1(C)SS3 [Compound 14, Dimeric epidithiodiketopiperazine] in, do you know?
LOW

Hey, which category is CN1C(=O)[C@]23C[C@]4(F)c5ccccc5N(S(=O)(=O)c5ccccc5)[C@@H]4N2C(=O)[C@H]1SS3 [Compound 35, C3-Fluoro epidithiodiketopiperazines] in, do you know?
HIGH

Hey, which category is CN1C(=O)C23CC4(c5c[nH]c6ccccc56)c5ccccc5N(S(=O)(=O)c5ccccc5)C4N2C(=O)C1(C)SC(=S)S3 (stereo not shown) in, do you know?
HIGH

Hey, which category is CN1C(=O)[C@@]23C[C@]4([C@]56C[C@@]78SS[C@@](CO)(C(=O)N7[C@H]5Nc5ccccc56)N(C)C8=O)c5ccccc5N[C@@H]4N2C(=O)[C@]1(CO)SS3 [Compound 4, (+)-chaetocin A] in, do you know?
LOW

Further cases:
Hey, which category is CN1C(=O)[C@@]23C[C@]4(Br)c5ccccc5N(S(=O)(=O)c5ccccc5)[C@@H]4N2C(=O)[C@@H]1SS3 [Compound 30, C3-Bromo epidithiodiketopiperazines] in, do you know?
LOW

Hey, which category is CN1C(=O)[C@@]23C[C@]4([C@]56C[C@@]78SS[C@@](C)(C(=O)N7[C@H]5Nc5ccccc56)N(C)C8=O)c5ccccc5N[C@@H]4N2C(=O)[C@]1(C)SS3 [Compound 3, (+)-12,12′-dideoxyverticillin A] in, do you know?
MEDIUM

Hey, which category is CC(=O)OC[C@]12SSS[C@@]3(C[C@]4([C@]56C[C@@]78SSS[C@@](COC(C)=O)(C(=O)N7[C@H]5Nc5ccccc56)N(C)C8=O)c5ccccc5N[C@@H]4N3C1=O)C(=O)N2C in, do you know?
MEDIUM

Hey, which category is CN1C(=O)[C@@]23C[C@]4(F)c5ccccc5N(S(=O)(=O)c5ccccc5)[C@@H]4N2C(=O)[C@@H]1SS3 [Compound 31, C3-Fluoro epidithiodiketopiperazines] in, do you know?
HIGH

The values you see were collected from patent US9353150B2.
